Tested on: transactivating tegument protein VP16 (Human herpesvirus 1), Gal4-VP16 luciferase reporter
test-summary: VP16 transactivation inhibitors, counter-screen for SRC3 inhibitor project, cell-based, luminescence, high throughput (AID 588794)
condition-label: mammalian cells, VP16-driven luciferase reporter luminescence; at 3.6 µM
Active and inactive are the calls of the source. Rule as the data show it: active = inhibition above about 30%; inactive = the rest.
Outcomes: active, inactive

- compound: "CNC1=C(N(C(C)=O)c2ccc(Br)cc2)C(=O)c2ccccc2C1=O"
  answer-label: "active"
- compound: "Cn1cnc([N+](=O)[O-])c1Sc1nc(N)nc2c1ncn2C1OC(CO)C(O)C1O (stereo not given)"
  answer-label: "inactive"
- compound: "CCCCCCCCCCCCCCCCn1cc[n+](C)c1"
  answer-label: "active"
- compound: "N=c1c2c(-c3ccccc3)c(-c3ccccc3)n(Cc3ccccc3)c2ncn1CCCn1ccnc1"
  answer-label: "active"
- compound: "NC(=S)NN=Cc1nccc2ccccc12"
  answer-label: "inactive"
- compound: "CCN(CC)S(=O)(=O)c1cccc(NC(=O)COC(=O)c2[nH]c(C)c(C(C)=O)c2C)c1"
  answer-label: "active"
- compound: "Cc1ccc(C2NC(=O)CCC2[N+](=O)[O-])cc1 (stereo not given)"
  answer-label: "inactive"
- compound: "Cc1ccc(NC(=O)c2cccc(S(=O)(=O)NCc3ccccc3)c2)nc1"
  answer-label: "inactive"
- compound: "CC(=O)c1c(C)oc2ccc(N(C(C)=O)S(=O)(=O)c3cccc4cccnc34)cc12"
  answer-label: "inactive"
- compound: "Cc1cc(OCc2nc(N)nc(N)c2-c2ccc(Cl)c(Cl)c2)ccc1[N+](=O)[O-]"
  answer-label: "active"
